study.target: T1, MHC class I molecule A*0201 (biotin (bound to streptavidin-coated plate))
T1 construct: also called A2; HLA-A2
test.protocol: iTopia iScore
metric.name: iScore

Please review the entries below; each comes with its answer.
INSERT INTO assay_data (binder, reported) VALUES
  ('SLRHLDLSN [5T4 9-mer peptide 118 SLRHLDLSN]', 0.03),
  ('LPSLRQLDL [5T4 9-mer peptide 71 LPSLRQLDL]', 0.098),
  ('RTVKCVNRN [5T4 9-mer peptide 37 RTVKCVNRN]', 0),
  ('EDERQNRSF [5T4 9-mer peptide 94 EDERQNRSF]', 0),
  ('LQGLRRLEL [5T4 9-mer peptide 105 LQGLRRLEL]', 0.114);

Read the next record carefully.
Data request: Consider the binder shown here: HFLYLPRDV [5T4 9-mer peptide 111 HFLYLPRDV] What is its recorded iScore?
Data returned: 0.227

These measurements were taken from patent US20090280138A1.
